B1: TPR 5TU (parent)
chain: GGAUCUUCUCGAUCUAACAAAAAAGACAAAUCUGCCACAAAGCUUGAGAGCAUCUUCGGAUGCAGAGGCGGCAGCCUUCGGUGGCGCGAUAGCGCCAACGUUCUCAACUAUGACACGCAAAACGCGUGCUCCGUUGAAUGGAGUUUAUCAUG

# Variants of: B1
# assay.overview: polymerase ribozyme fitness, log enrichment relative to wild type (log ratio); higher = more active; in vitro selection for triplet polymerase activity
Fewer inactive variants are shown than the library holds.
Assignment: determine reported polymerase ribozyme fitness (log ratio) for the given variants.

A73G G92A C99G G141U = ≤ -4.2
A16C C72U U82A C85U A91U = ≤ -4.2
A30G G46C G50U C57U C118G = ≤ -4.2
C14G C35A G42C A66G C96G G117U = ≤ -4.2
A12G G48A G71A G86A G126U C131A G140U C149A A150G = ≤ -4.2

// for each variant below, give its polymerase ribozyme fitness (log ratio)
1. A39U U61A A64C G86C
2. G68A C87G G128U
3. A47C C51G C87U A89U A107G
4. G11A U82A
5. U9G U33A C36A C63U C79G C118A U135A
6. G84U U148A
7. A3U G133U U135G
8. U61G C116A

A)
["≤ -4.2", "≤ -4.2", "≤ -4.2", -1.4, "≤ -4.2", "≤ -4.2", "≤ -4.2", -0.386]

For every record below, what is its polymerase ribozyme fitness (log ratio)?
1. C76U C85A
2. A89U A122U

A)
1: -2.44; 2: -0.615

For the 2 variants below, give their polymerase ribozyme fitness (log ratio) values.
1. A47G G62U U145C U151A
2. A16U A20U G58C G86A

A)
≤ -4.2
-3.79
